experiment: gradient 5% acetonitrile 3 min, to 50% in 2 min, to 85% in 15 min, held 3 min, 100 µL/min; settings: column: Zorbax Extend-C18 2.1 x 50 mm; eluents: water / acetonitrile, 0.1% formic acid
Assay Readout: RP-LC retention time (s)

// RP-LC retention time lookup, key: `Cn1c(NCCN(CCO)CCCc2ccc([N+](=O)[O-])cc2)cc(=O)n(C)c1=O`
610

// RP-LC retention time lookup, key: `Cc1ccc(-c2cc(C(=O)NC(C)C)n(C)c2)cc1`
977

// RP-LC retention time lookup, key: `CCNC(=O)c1nccnc1NC(=O)c1ccccc1`
743

// RP-LC retention time lookup, key: `Cn1cccc1C(=O)N1CCN(c2cc(-c3ccccc3)[nH]n2)CC1`
747

// RP-LC retention time lookup, key: COCCCN1C(=O)CSc2c(c3ccccc3n2C)C1C(=O)NCCCOC(C)C (stereo not given)
825

(a) CCn1ccnc1N1CCN(C(=O)COc2ccc(Cl)cc2Cl)CC1
(b) CCOc1ccc2nc(NC(=O)Cc3csc4nc(-c5ccccc5)cn34)sc2c1
Given a and given b , which shows the smaller recorded RP-LC retention time? Select an item and report its label.
a

(a) Cc1nc(-c2ccc3c(c2)CCN3C(=O)Cc2cccs2)cs1
(b) c1ccc(-c2noc(COC3CCCN(C4CCOCC4)C3)n2)cc1 (stereo not given)
Given a and given b , which shows the smaller recorded RP-LC retention time? Select an item and report its label.
b

---

assay: gradient 5% acetonitrile 3 min, to 50% in 2 min, to 85% in 15 min, held 3 min, 100 µL/min; settings: column: Zorbax Extend-C18 2.1 x 50 mm; eluents: water / acetonitrile, 0.1% formic acid
Assay Readout: RP-LC retention time (s)

(1) O=[N+]([O-])c1c(NCCO)cc(Nc2ccc3c(c2)OCCO3)c2nonc12
(2) Cc1nc(-c2cn(C(C)C)c3ncccc23)sc1C(=O)N1CCCCC1C (centres undefined)
Given 1 and given 2 , which shows the smaller recorded RP-LC retention time? Select an item and report its label.
1

(P) COc1ccc(Cc2nc3nccc(-c4cccnc4)n3n2)cc1
(Q) CC(C)c1cc(C(=O)Nc2ccc(F)cc2F)nc2ccnn12
Lab notebook, comparison: P versus Q , higher RP-LC retention time goes to which? Select an item and report its label.
Q

---

experiment: gradient 5% acetonitrile 3 min, to 50% in 2 min, to 85% in 15 min, held 3 min, 100 µL/min; details: column: Zorbax Extend-C18 2.1 x 50 mm; eluents: water / acetonitrile, 0.1% formic acid
Assay Readout: RP-LC retention time (s)

// RP-LC retention time lookup, key: `N#CCn1cccc(S(=O)(=O)N2CCCCCC2)c1=O`
737

// RP-LC retention time lookup, key: `Cn1nc(-c2nnc(-c3ccccc3)o2)c2c1CCN(S(=O)(=O)c1ccc(F)cc1F)C2`
955

// RP-LC retention time lookup, key: `CC(=O)N1CCCSc2ccc(S(=O)(=O)N(C)c3ccc(C)cc3)cc21`
937

// RP-LC retention time lookup, key: `O=c1n(Cc2ccccc2Cl)nc2ccc(S(=O)(=O)N3CCOCC3)cn12`
824

// RP-LC retention time lookup, key: `CCc1nc(-c2cc(S(=O)(=O)Nc3ccc(F)cc3F)c(C)s2)cs1`
994

// RP-LC retention time lookup, key: CCOC(=O)N1CCN(C(c2ccc(F)cc2)c2sc3ncnn3c2O)CC1 (centres undefined)
667

// RP-LC retention time lookup, key: `COc1cc(OC)c(-n2nnc(-c3nsc(Nc4ccc(OC)c(OC)c4)n3)c2C)cc1Cl`
928

// RP-LC retention time lookup, key: `Cc1ccccc1NC(=O)NCCc1cn(CC(C)C)c2ncccc12`
808

// RP-LC retention time lookup, key: COc1ccc(C(=O)N2CCCC2COc2ccc(C(=O)N3CCCC3)cc2)cc1 (centres undefined)
800

---

experiment: gradient 5% acetonitrile 3 min, to 50% in 2 min, to 85% in 15 min, held 3 min, 100 µL/min; conditions: column: Zorbax Extend-C18 2.1 x 50 mm; eluents: water / acetonitrile, 0.1% formic acid
Assay Readout: RP-LC retention time (s)

Examples with their reported RP-LC retention time follow.
// RP-LC retention time lookup, key: Cc1ccc(CNC(=O)C2CCCN2S(=O)(=O)c2cc3c(cc2Cl)NC(=O)CO3)cc1 (stereo not given)
786

// RP-LC retention time lookup, key: `C=CCn1c(=O)c2ccccc2n(Cc2nc(-c3ccccc3)no2)c1=O`
1000

(A) COCc1nc2nccc(-c3ccc(OC)cc3F)n2n1
(B) CCCNS(=O)(=O)c1cc(-c2nc(C(C)C)cs2)sc1C
Lab notebook, comparison: A versus B , higher RP-LC retention time goes to which? Select an item and report its label.
B

---

assay: gradient 5% acetonitrile 3 min, to 50% in 2 min, to 85% in 15 min, held 3 min, 100 µL/min; settings: column: Zorbax Extend-C18 2.1 x 50 mm; eluents: water / acetonitrile, 0.1% formic acid
Assay Readout: RP-LC retention time (s)

Examples with their reported RP-LC retention time follow.
// RP-LC retention time lookup, key: COC1=CC(=O)OC(/C=C/c2ccccc2)C1 (stereo not given)
883

// RP-LC retention time lookup, key: `Cc1cc(C)cc(NC(=O)Cn2c(=O)n(-c3ccc(F)cc3)c(=O)c3c2cc(C)n3C)c1`
879

// RP-LC retention time lookup, key: `O=C(Cc1cccs1)N1CCCn2nc(-c3ccncc3)cc2C1`
591

(I) Cc1ccc(NC(=O)Cn2nc(C)cc2C(=O)Nc2ccc3c(c2)OCCO3)cc1
(II) CN1C(=O)CSc2ccc(NC(=O)N3CCN(c4ccccn4)CC3)cc21
Lab notebook, comparison: I versus II , higher RP-LC retention time goes to which? Select an item and report its label.
I

(1) CCc1cccc(NC(=O)Cn2cnc3c(sc4nc(-c5ccccc5)ccc43)c2=O)c1
(2) CC(C)CN(Cc1cccnc1)C1CN(C(=O)NCc2ccc(F)cc2)C1
Given 1 and given 2 , which shows the smaller recorded RP-LC retention time? Select an item and report its label.
2

---

assay: gradient 5% acetonitrile 3 min, to 50% in 2 min, to 85% in 15 min, held 3 min, 100 µL/min; conditions: column: Zorbax Extend-C18 2.1 x 50 mm; eluents: water / acetonitrile, 0.1% formic acid
Assay Readout: RP-LC retention time (s)

// RP-LC retention time lookup, key: `Cc1cccc(N2CCN(C(=O)Cn3c(=O)c4nnc(C)n4c4ncccc43)CC2)c1`
738

// RP-LC retention time lookup, key: `Cc1ccccc1NC(=O)c1cccn1Cc1noc(C2CC2)n1`
880

// RP-LC retention time lookup, key: `CCN(CC)C(=O)CN1CCN(c2cc(C(=O)O)c3cc(NC(=O)C(C)(C)C)ccc3n2)CC1`
572

// RP-LC retention time lookup, key: `CCc1ccc(CNC(=O)c2cc3ccncc3n2C)cc1`
648

// RP-LC retention time lookup, key: `CC(C)c1noc(-c2cc(=O)n(CC(=O)Nc3ccc4c(c3)OCCO4)c3ccccc23)n1`
941

// RP-LC retention time lookup, key: `Cn1cnc2c(C(=O)NC3CCCCC3)nn(-c3cccc(Cl)c3)c2c1=O`
975

// RP-LC retention time lookup, key: Cn1cc(-c2cnn3c(N)c(Br)c(C4CCCNC4)nc23)cn1 (centres undefined)
613

// RP-LC retention time lookup, key: `O=C(CCc1nc(CSc2nnc(-c3ccccc3)o2)no1)Nc1ccc(F)cc1`
892

// RP-LC retention time lookup, key: `Cc1ccc(CNC(=O)[C@@]23CCCC[C@H]2N(C)C(=O)CC3)cc1`
688

---

test: gradient 5% acetonitrile 3 min, to 50% in 2 min, to 85% in 15 min, held 3 min, 100 µL/min; settings: column: Zorbax Extend-C18 2.1 x 50 mm; eluents: water / acetonitrile, 0.1% formic acid
Assay Readout: RP-LC retention time (s)

Examples with their reported RP-LC retention time follow.
// RP-LC retention time lookup, key: `CCCN1CCN(c2cc(C(=O)O)c3cc(NS(=O)(=O)c4ccc(F)c(F)c4)ccc3n2)CC1`
651

// RP-LC retention time lookup, key: `CCN1C(=O)c2cccnc2Sc2cc(NC(=O)c3ccccc3F)ccc21`
834

// RP-LC retention time lookup, key: `Cc1ccc(S(=O)(=O)N2C[C@@H]3CN(S(=O)(=O)c4ccccc4F)C[C@H](C2)O3)cc1`
955

(a) CCCN1C(=O)COc2ccc(-c3noc(-c4ccccc4Cl)n3)cc21
(b) Cc1ccc(CNC(=O)C2(C)CCC(=O)N2CCc2c[nH]c3ccccc23)cc1 (stereo not given)
Lab notebook, comparison: a versus b , higher RP-LC retention time goes to which? Select an item and report its label.
a

---

assay: gradient 5% acetonitrile 3 min, to 50% in 2 min, to 85% in 15 min, held 3 min, 100 µL/min; details: column: Zorbax Extend-C18 2.1 x 50 mm; eluents: water / acetonitrile, 0.1% formic acid
Assay Readout: RP-LC retention time (s)

Examples with their reported RP-LC retention time follow.
// RP-LC retention time lookup, key: `O=C(NCCn1cnc2cc(C(=O)N3CCCC3)ccc21)Nc1ccc2c(c1)CCC2`
645

// RP-LC retention time lookup, key: CN1C(=O)c2cc(C(=O)NCc3cccc(F)c3)nn2CC1(C)C(=O)NCc1ccccc1 (stereo not drawn)
747

// RP-LC retention time lookup, key: CC1CCC(NC(=O)C2CCN(S(=O)(=O)c3ccc4c(c3)sc(=O)n4C(C)C)CC2)CC1 (stereo not drawn)
1020

// RP-LC retention time lookup, key: `CCc1ccc(NC(=O)N2CCC(n3cnc4cc(F)ccc4c3=O)CC2)cc1`
867

// RP-LC retention time lookup, key: `CCCNc1cc(N2CCC(CCC(=O)NCc3ccc(F)cc3F)CC2)ncn1`
694

// RP-LC retention time lookup, key: `O=C(NCc1ccccn1)c1nnn(Cc2ccc(Cl)cc2)c1-n1cccc1`
760

(a) COc1ccc(-c2ncc3c(n2)CCN(C(=O)Nc2cc(C)ccc2C)C3)cc1
(b) Cc1sc2ccn(Cc3ccc(F)cc3)c(=O)c2c1C(=O)NCc1cccs1
Lab notebook, comparison: a versus b , higher RP-LC retention time goes to which? Select an item and report its label.
b

(A) CCc1noc(NC(C)=O)c1-c1ccc(OC)c(S(=O)(=O)Nc2ccc(F)cc2F)c1
(B) Cc1cccc(NC(=O)Nc2nccn(-c3ccc4c(c3)CCC4)c2=O)c1
Given A and given B , which shows the smaller recorded RP-LC retention time? Select an item and report its label.
A
(A: 794 s, B: 1140 s)

(I) Cc1nnsc1C(=O)Nc1ccc2c(c1)OCC(C)(C)C(=O)N2C
(II) Cc1ccc(NC(=O)c2cc3c(=O)n(C)c4ccccc4n3n2)cc1F
Given I and given II , which shows the smaller recorded RP-LC retention time? Select an item and report its label.
I

Every entry's value here was drawn from the METLIN SMRT retention time set (Domingo-Almenara et al. 2019).
